Biological target: T1, recombinant biotinylated CD71 extracellular domain (Sino Biologics) with an N-terminal 6His tag (human, UniProt P02786 89-760, biotinylated (sites not given))
T1 construct: extracellular domain; also called hCD71; huCD71
T1 sequence (P02786 other isoform, or with tags, fused parts or gaps): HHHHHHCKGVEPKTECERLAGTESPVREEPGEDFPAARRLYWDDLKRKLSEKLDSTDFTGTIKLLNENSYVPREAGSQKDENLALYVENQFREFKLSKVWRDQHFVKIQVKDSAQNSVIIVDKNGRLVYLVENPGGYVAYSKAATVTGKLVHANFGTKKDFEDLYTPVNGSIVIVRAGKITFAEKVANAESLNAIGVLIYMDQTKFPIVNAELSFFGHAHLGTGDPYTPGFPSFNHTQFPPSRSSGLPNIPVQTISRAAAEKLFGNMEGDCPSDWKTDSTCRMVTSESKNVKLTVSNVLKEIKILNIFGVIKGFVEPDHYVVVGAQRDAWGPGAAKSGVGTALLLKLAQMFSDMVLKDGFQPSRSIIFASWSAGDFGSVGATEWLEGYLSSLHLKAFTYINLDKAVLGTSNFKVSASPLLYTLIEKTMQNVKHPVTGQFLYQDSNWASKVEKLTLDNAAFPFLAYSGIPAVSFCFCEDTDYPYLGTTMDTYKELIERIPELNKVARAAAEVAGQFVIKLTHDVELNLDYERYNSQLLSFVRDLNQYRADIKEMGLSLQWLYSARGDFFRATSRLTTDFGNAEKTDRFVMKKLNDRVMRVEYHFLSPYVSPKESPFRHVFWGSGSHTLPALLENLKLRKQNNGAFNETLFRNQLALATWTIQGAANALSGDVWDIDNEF
Test: screening ELISA, ratio
Kindly supply the reported hCD71:HSA values for the records listed here.
Keep the answer to the number alone.

Prompt: # query: hCD71:HSA of entry SEQ ID NO 213 (designed binder, FN3 domain) MLPAPKNLVVSRVTEDSARLSWTAPDAAFDSFWIYYWEIERAGEAIRLDVPGSERSYDLTGLKPGTEYRVDIWGVKGGPTSGPLRATFTT
Completion: 215

Prompt: Name the recorded hCD71:HSA for SEQ ID NO 144 (designed binder, FN3 domain) MLPAPKNLVVSRVTEDSARLSWTAPDAAFDSFIIPYAEVRPDGEAIVLTVPGSERSYDLTGLKPGTEYSVLIHGVKGGKLSLPLSAIFTT .
Completion: 986

Prompt: Dear colleague, I am looking for the recorded hCD71:HSA of the following binder: SEQ ID NO 114 (designed binder, FN3 domain) MLPAPKNLVVSRVTEDSARLSWTAPDAAFDSFAIEYWEAVGSGEAIVLTVPGSERSYDLTGLKPGTEYHVYIYGVKGGYLSLPLSAIFTT
Completion: 780

Prompt: // lookup hCD71:HSA for SEQ ID NO 155 (designed binder, FN3 domain) MLPAPKNLVVSRVTEDSARLSWTAPDAAFDSFPITYRERSQYGEAIVLTVPGSERSYDLTGLKPGTEYVVPIEGVKGGRGSKPLSAIFTT
Completion: 71

Prompt: Entry SEQ ID NO 295 (designed binder, FN3 domain) MLPAPKNLVVSRVTEDSARLSWTAPDAAFDSFFIGYLEPIPSGEAIVLTVPGSERSYDLTGLKPGTEYPVVIQGVKGGHPSQPLSAIFTT : reported hCD71:HSA = ?
Completion: 891

Prompt: I am curious: what hCD71:HSA value has been reported for SEQ ID NO 119 (designed binder, FN3 domain) MLPAPKNLVVSRVTEDSARLSWTAPDAAFDSFHIEYEETPQKGEAIFLRVPGSERSYDLTGLKPGTEYVVNIRGVKGGDLSSPLGALFTT ?
Completion: 1710

Prompt: Record request: hCD71:HSA value, item SEQ ID NO 265 (designed binder, FN3 domain) MLPAPKNLVVSRVTEDSARLSWTAPDAAFDSFWIYYIETSHQGEAIVLTVPGSERSYDLTGLKPGTEYFVLIKGVKGGYDSVPLSAIFTT
Completion: 913

Prompt: For SEQ ID NO 169 (designed binder, FN3 domain) MLPAPKNLVVSRVTEDSARLSWTAPDAAFDSFFIGYLEPQPPGEAIVLTVPGSERSYDLTGLKPGTEYNVTIQGVKGGFPSVPLSAIFTT , what is its reported hCD71:HSA?
Completion: 1060

Prompt: Could you tell me which hCD71:HSA is on file for SEQ ID NO 92 (designed binder, FN3 domain) MLPAPKNLVVSRVTEDSARLSWTAPDAAFDSFLIRYWEWYVLGEAIVLTVPGSERSYDLTGLKPGTEYYVEISGVKGGWQSWPLSAIFTT ?
Completion: 2960

Values from patent US20210145976A1
